# credit: PubChem BioAssay AID179

# Test system: CEM cells HIV-1 protection, formazan growth assay
# PROCEDURE_SUMMARY: NCI AIDS Antiviral Assay
MEASURED_ENDPOINT: EC50

For orientation, consider the following solved cases.
O=C1CCC2(CC1CCSc1ccccc1)OCCO2 (stereo unspecified) :: > 200 µM
CC1CC(=O)N(N(C)C)C(C#N)(C#N)C1(C#N)C#N (stereo unspecified) :: > 200 µM
Cc1ccc(C)n1CCN1CCNCC1 :: > 200 µM

// for each compound in input: emit EC50
1. CCCCCC/C(CC(=O)CCC(=O)NCCc1ccccc1)=N\Nc1ccc([N+](=O)[O-])cc1[N+](=O)[O-]
2. CC1CC2Oc3ccc(Cl)cc3C(=O)N2O1 (stereo unspecified)
3. Cc1c(C)c2ccc3c(c2oc1=O)[C@@H](OC(=O)C12CCC(C)(C(=O)O1)C2(C)C)[C@@H](OC(=O)C12CCC(C)(C(=O)O1)C2(C)C)C(C)(C)O3 (stereo partly specified)
4. CN(C)c1ccc(C=C2C(=O)N(c3ccccc3)N(c3ccccc3)C2=O)cc1
5. COC(=O)c1c(C(=O)OC)c(C(c2ccccc2)c2ccccc2)n(-c2ccccc2)c1Cl
6. Cn1c2c(c3ccccc31)CCN(CCCN1CCN(c3ccccc3)CC1)C2=O

-- reply
["> 97.7 µM", "> 200 µM", "0.245 µM", "> 100 µM", "> 200 µM", "> 55 µM"]

// for each compound in input: emit EC50
1. COc1ccc2oc(=N)c(C(N)=S)cc2c1
2. COc1ccccc1/C=C1\SC(=S)N(/C=C2\C(=O)Oc3ccccc3C2=O)C1=O

-- reply
1: > 200 µM; 2: > 200 µM

---

Assign EC50 to each entry below.
# Test system: CEM cells HIV-1 protection, formazan growth assay
# PROCEDURE_SUMMARY: NCI AIDS Antiviral Assay

CCN(CC)C(=O)C1C[C@@H](O)CN1C(=O)c1ccc(OC)c(OC)c1 (some centres not stated) :: > 200 µM
NCCN(CCN)CCN :: > 151 µM
N#C/C=C\c1ccc(Cl)cc1 :: > 43.7 µM
O=[N+]([O-])OC1CCCC(O[N+](=O)[O-])c2c1n([O-])c1ccccc1[n+]2=O (configuration not stated) :: > 51.3 µM
O=c1[nH]c(=O)n(C2CC(F)C(CO)O2)cc1COCC(F)(F)F (configuration not stated) :: 0.17 µM

// for each compound in input: emit EC50
1. Nc1ncnc2c(C3OC(CO)C(O)C3O)c[nH]c12 (configuration not stated)
2. Cc1ccc(S(=O)(=O)NCCCSCCSCCCN)cc1

-- reply
["> 832 µM", "> 257 µM"]

---

# Tested on: CEM cells HIV-1 protection, formazan growth assay
# PROCEDURE_SUMMARY: NCI AIDS Antiviral Assay
# EXPERIMENTAL_CONDITIONS: measured here: growth of uninfected CEM cells
pIC50: −log10 of the molar value.
Assign pIC50 to each entry below.

For orientation, consider the following solved cases.
Cc1c([N+](=O)[O-])oc2c1C(=O)N([N+](=O)[O-])CCC2 :: < 4.05
O=C(/C=C/c1ccc(-c2ccccc2)cc1)c1ccccc1 :: < 4.88
N#C[C@H]1Nc2ccccc2[C@@H](O)C1O (some centres undefined) :: < 2.88

// for each compound in input: emit pIC50
1. CC(=O)OCC1OC(SC2OC(COC(C)=O)C(OC(C)=O)C(OC(C)=O)C2OC(C)=O)C(OC(C)=O)C(OC(C)=O)C1OC(C)=O (centres undefined)
2. COc1ccc(C2S/C(=C\c3ccc([N+](=O)[O-])cc3)C(=O)N2NC(=O)Cc2ccccc2)cc1 (centres undefined)
3. c1ccc(N2CCN(CCCN3CCc4c([nH]c5ccccc45)C3c3cccnc3)CC2)cc1 (centres undefined)
4. CCc1cccc(CC)c1N=C(NC(=O)c1ccc(Br)cc1)SC
5. Cc1cccc(C)c1NC(=S)/N=C\c1c(O)[nH]c(=O)[nH]c1=O

-- reply
1: < 3.70; 2: < 4.26; 3: < 5.66; 4: < 3.70; 5: < 3.70

// for each compound in input: emit pIC50
1. CC(=O)Nn1cnc(C(=N)C#N)c1N
2. O=C(NC1CCCCC1)NC12CC3CC(CC(F)(C3)C1)C2
3. O=C(O)Cc1[nH]c(=O)[nH]c(=O)c1CCl

-- reply
["< 3.70", "< 4.34", "< 4.00"]

// for each compound in input: emit pIC50
1. CC(/C=C/c1ncccc1OCCCCCC(=O)O)=N\NC1=NCCN1
2. CC12CC(=O)C3C(C(=O)C1)C32C (centres undefined)
3. COC(=O)C1(O)c2ccccc2N=C2C1CCN2C (centres undefined)

-- reply
1. < 4.16
2. < 3.70
3. < 4.56

---

# Tested on: CEM cells HIV-1 protection, formazan growth assay
# PROCEDURE_SUMMARY: NCI AIDS Antiviral Assay
# Procedure: The ability of compounds to protect human CEM cells from HIV-1 infection is measured as a screen for new compounds capable of inhibiting the HIV virus. Five concentrations of drug were tested on uninfected and infected cells and cell growth was measured using a soluble formazan assay. […] Compounds that provided at least 50% protection were retested. Compounds that provided at least 50% protection on retest were listed as moderately active. […]
Assign EC50 to each entry below.

For orientation, consider the following solved cases.
Cc1cc(=O)oc2cc(OCCCOc3ccc4c(C)cc(=O)oc4c3)ccc12 :: > 3.72 µM
COC(=O)C(Cc1c[nH]c2ccccc12)NC(=O)C(Cc1cnc[nH]1)NC(=O)C1CCC(=O)N1C(=O)OCc1ccccc1 (stereo not drawn) :: > 200 µM
O=S(Cc1cnc2ccccc2c1)c1nc2ccccc2nc1-c1cccs1 (stereo not drawn) :: > 6.76 µM
CCOC(=O)c1c(NC(=O)OC)c(C#N)c2n1CCCCC2 :: > 200 µM
CC(C)CCCC(C)N (stereo not drawn) :: > 200 µM
Cc1c(C(=O)CC(=O)C(=O)Nc2c(C(C)C)cccc2C(C)C)[n+](=O)c2ccccc2n1[O-] :: > 6.03 µM

// for each compound in input: emit EC50
1. COC(=O)C1(Cc2ccc3c(c2)CCC3)Cc2ccccc2C1=O (stereo not drawn)
2. COc1ccc(OCc2nc3ccccc3[nH]2)cc1

-- reply
["> 200 µM", "> 200 µM"]

// for each compound in input: emit EC50
1. CC/C(Cl)=N\OC(=O)Nc1ccc(OC)cc1
2. C[n+]1[se]c2ccccc2c1Cl
3. Cc1cc(S(=O)(=O)NC(=NCC(=O)NN)NN)c(S)cc1Cl
4. Cc1ccc(S(=O)(=O)NC2C(=O)c3ccccc3C(=O)C2n2cnc3ccccc32)cc1 (stereo not drawn)
5. CC1OC(OC23C(=O)CC(C)(O)CC2(O)C=CC2=C3C(=O)c3ccc(C4CC(OC5CCC(OC6CC(O)C(O)C(C)O6)C(C)O5)C(O)C(C)O4)c(O)c3C2=O)CCC1O (stereo not drawn)
6. CCOC(=O)c1c(NC(=O)CCC(=O)Nc2sc(C)c(C)c2C(=O)OCC)sc(C)c1C
7. O=C1CCC(c2nc3ccccc3o2)C(=O)N1 (stereo not drawn)

-- reply
1: > 20 µM; 2: > 186 µM; 3: > 200 µM; 4: > 200 µM; 5: > 295 µM; 6: > 100 µM; 7: > 1070 µM

// for each compound in input: emit EC50
1. COC1CCC(OS(C)(=O)=O)C(C)O1 (stereo not drawn)
2. Cc1cn(COCCSc2ccccc2)c(=O)[nH]c1=O
3. N#Cc1cscc1C#N

-- reply
> 200 µM
> 135 µM
> 200 µM

---

# Tested on: CEM cells HIV-1 protection, formazan growth assay
# PROCEDURE_SUMMARY: NCI AIDS Antiviral Assay;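 active = compounds giving half or more protection of infected cells from virus-caused growth loss, again on retest; inactive = the rest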
// allowed return values: active, inactive

-- ask Assay result, entry CCOCC1c2ccccc2CCN1Cc1c[nH]c2ccccc12 (stereo not drawn) — outcome?
-- reply inactive

-- ask Moving on to the next compound: NC(=S)N/N=C/c1ccc(O)cn1
-- reply inactive

-- ask Moving on to the next compound: N#Cc1n[nH]c2nc(=S)sc(N)c12
-- reply inactive

-- ask Moving on to the next compound: CC(C)=CCC[C@@H](C)C1=C(Nc2ccccc2Cl)C(O)=C(C)C(=O)C1=O
-- reply inactive

-- ask Moving on to the next compound: C=CC/C=C/C/C=C/CCCCCCCc1cccc(O)c1C(=O)O
-- reply inactive

-- ask Moving on to the next compound: CCC[CH2][Sn]1([CH2]CCC)[O]C(=O)C2C(C(=O)[O]1)C1(Cl)C(Cl)=C(Cl)C2(Cl)C1(Cl)Cl (stereo not drawn)
-- reply inactive

-- ask Moving on to the next compound: CC12ON=C(c3ccccc3)N1C=CN1C(c3ccccc3)=NOC12 (stereo not drawn)
-- reply inactive

-- ask Moving on to the next compound: COc1ccc2c(c1)C(=O)CC=C(C(=O)O)N2
-- reply inactive

-- ask Moving on to the next compound: Cc1cc(C)cc(NC(=O)CCC(=O)C2CCC/C2=N\NC(=O)C(=O)NN)c1 (stereo not drawn)
-- reply inactive

-- ask Moving on to the next compound: CC(=O)OC[C@H]1OC(=O)C2O[C@H](c3ccccc3)OC21 (stereo partly drawn)
-- reply inactive
